Molecular target: BRD4 Bromodomain 1 (BRD4 BD1) (Homo sapiens, UniProt O60885)
Construct: 44-168 and BRD4 BD2
Assay: AlphaScreen binding assay, BRD4 BD1
Settings: His-tagged BRD4 BD1 50 nM, biotinylated H4 (1-21) K5/8/12/16 tetra-acetylated peptide 50 nM, compounds listed under IC50 range headings
pIC50: −log10 of the molar value.
MEASUREMENT LABEL: pIC50

[
  {
    "TEST SMILES": "COC(=O)N1c2ccc(-c3cn(C)c(C4CCNCC4)n3)c(OC3CCC3)c2CC[C@@H]1C",
    "OBSERVED RESULT": "≤ 5.00"
  },
  {
    "TEST SMILES": "COC(=O)N1c2ccc(-c3cnn(C4CCNCC4)c3)c(Oc3ccc(F)cc3)c2CC[C@@H]1C",
    "OBSERVED RESULT": "6.00 to 7.00"
  },
  {
    "TEST SMILES": "CC(=O)N1c2ccc(-c3cnn(CCS(C)(=O)=O)c3)c(OCC3CCCC3)c2CC[C@@H]1C",
    "OBSERVED RESULT": "6.00 to 7.00"
  },
  {
    "TEST SMILES": "CC(=O)N1c2ccc(-c3ccc(N4CCCS4(=O)=O)cc3)c(Oc3ncc(F)cn3)c2CC[C@@H]1C",
    "OBSERVED RESULT": "6.00 to 7.00"
  }
]

====

Readings of IC50 for the listed compounds
Target: BRD4 Bromodomain 1 (BRD4 BD1) (Homo sapiens)
Construct: 44-168 and BRD4 BD2
Test: AlphaScreen binding assay, BRD4 BD1
Details: His-tagged BRD4 BD1 50 nM, biotinylated H4 (1-21) K5/8/12/16 tetra-acetylated peptide 50 nM, compounds listed under IC50 range headings
MEASUREMENT LABEL: IC50

[
  {
    "COMPOUND": "COC(=O)N1c2ccc(-c3cnn(C4CCCS(=O)(=O)C4)c3)c(Oc3ccc(F)cc3)c2CC[C@@H]1C (some centres unmarked)",
    "TARGET DESC": "BRD4 Bromodomain 1 (BRD4 BD1) (Homo sapiens)",
    "MEASUREMENT LABEL": "IC50",
    "OBSERVED RESULT": "100 to 1000 nM"
  },
  {
    "COMPOUND": "C[C@H]1CCc2c(ccc(-c3cnn(C4CNC4)c3)c2Oc2cccc(F)c2)N1C(=O)C1CC1",
    "TARGET DESC": "BRD4 Bromodomain 1 (BRD4 BD1) (Homo sapiens)",
    "MEASUREMENT LABEL": "IC50",
    "OBSERVED RESULT": "100 to 1000 nM"
  },
  {
    "COMPOUND": "COC(=O)N1c2ccc(-c3cnn(C4CC4)c3)c(OCC(F)(F)F)c2CC[C@@H]1C",
    "TARGET DESC": "BRD4 Bromodomain 1 (BRD4 BD1) (Homo sapiens)",
    "MEASUREMENT LABEL": "IC50",
    "OBSERVED RESULT": "≥ 10000 nM"
  },
  {
    "COMPOUND": "C[C@H]1CCc2c(ccc(-c3cnn(C4CS(=O)(=O)C4)c3)c2Oc2ccccc2)N1C(=O)C1CC1",
    "TARGET DESC": "BRD4 Bromodomain 1 (BRD4 BD1) (Homo sapiens)",
    "MEASUREMENT LABEL": "IC50",
    "OBSERVED RESULT": "100 to 1000 nM"
  },
  {
    "COMPOUND": "COC(=O)N1c2ccc(-c3cnn(C4CNC4C)c3)c(OC3CCC3)c2CC[C@@H]1C (some centres unmarked)",
    "TARGET DESC": "BRD4 Bromodomain 1 (BRD4 BD1) (Homo sapiens)",
    "MEASUREMENT LABEL": "IC50",
    "OBSERVED RESULT": "1000 to 10000 nM"
  },
  {
    "COMPOUND": "CC(=O)N1c2ccc(-c3cnn(C4CCNCC4)c3)c(Oc3ccccc3C#N)c2CC[C@@H]1C",
    "TARGET DESC": "BRD4 Bromodomain 1 (BRD4 BD1) (Homo sapiens)",
    "MEASUREMENT LABEL": "IC50",
    "OBSERVED RESULT": "100 to 1000 nM"
  },
  {
    "COMPOUND": "COC(=O)N1c2ccc(-c3csc(N4CC(O)C4)n3)c(OC3CCC3)c2CC[C@@H]1C",
    "TARGET DESC": "BRD4 Bromodomain 1 (BRD4 BD1) (Homo sapiens)",
    "MEASUREMENT LABEL": "IC50",
    "OBSERVED RESULT": "100 to 1000 nM"
  },
  {
    "COMPOUND": "C[C@H]1CCc2c(ccc(-c3cn[nH]c3)c2OC2CCC2)N1C(=O)C1CC1",
    "TARGET DESC": "BRD4 Bromodomain 1 (BRD4 BD1) (Homo sapiens)",
    "MEASUREMENT LABEL": "IC50",
    "OBSERVED RESULT": "100 to 1000 nM"
  }
]

====

Target: BRD4 Bromodomain 1 (BRD4 BD1) (Homo sapiens, UniProt O60885)
Construct: 44-168 and BRD4 BD2
Test: AlphaScreen binding assay, BRD4 BD1
Settings: His-tagged BRD4 BD1 50 nM, biotinylated H4 (1-21) K5/8/12/16 tetra-acetylated peptide 50 nM, compounds listed under IC50 range headings
pIC50: −log10 of the molar value.
As shown below, each of these compounds has a reported pIC50 value.

[
  {
    "COMPOUND": "COC(=O)N1c2ccc(-c3cnn(C4CCNC(=O)C4)c3)c(Oc3ccc(F)cc3)c2CC[C@@H]1C (some centres unmarked)",
    "pIC50": "6.00 to 7.00"
  },
  {
    "COMPOUND": "COCCOc1c(-c2cnn(C3CC3)c2)ccc2c1CC[C@H](C)N2C(C)=O",
    "pIC50": "6.00 to 7.00"
  },
  {
    "COMPOUND": "COC(=O)N1c2ccc(-c3cnn(C4CC4)c3)c(OC3CNC3)c2CC[C@@H]1C",
    "pIC50": "5.00 to 6.00"
  },
  {
    "COMPOUND": "CC(=O)N1c2ccc(-c3cnn(CCO)c3)c(Oc3ncc(C(C)C)cn3)c2CC[C@@H]1C",
    "pIC50": "6.00 to 7.00"
  },
  {
    "COMPOUND": "C[C@H]1CCc2c(ccc(-n3cc(C4CCNCC4)cn3)c2Oc2ccccc2)N1C(=O)C1CC1",
    "pIC50": "5.00 to 6.00"
  },
  {
    "COMPOUND": "COC(=O)N1c2ccc(-c3cnn(CCO)c3)c(Oc3ncc(C)cn3)c2CC[C@@H]1C",
    "pIC50": "5.00 to 6.00"
  },
  {
    "COMPOUND": "CC(=O)N1c2ccc(-c3cnn(C4CCNCC4)c3)c(Oc3cc(F)ccc3F)c2CC[C@@H]1C",
    "pIC50": "6.00 to 7.00"
  },
  {
    "COMPOUND": "CC(=O)N1c2ccc(-c3cnn(C4CCNCC4)c3)c(Oc3ncc(C(F)(F)F)cn3)c2CC[C@@H]1C",
    "pIC50": "6.00 to 7.00"
  }
]

====

Collected pIC50 values appear next to each entry.
Biological target: BRD4 Bromodomain 2 (BRD4 BD2) (Homo sapiens, UniProt O60885)
Construct: 333-460 were cloned, expressed, and purified to homogeneity
Experiment: AlphaScreen binding assay, BRD4 BD2
Conditions: His-tagged BRD4 BD2 100 nM, biotinylated H4 (1-21) K5/8/12/16 tetra-acetylated peptide 100 nM, compounds listed under IC50 range headings
pIC50: −log10 of the molar value.
MEASUREMENT LABEL: pIC50

[
  {
    "COMPOUND": "CC(=O)N1c2ccc(-c3cnn(C4CC4)c3)c(OCCNS(C)(=O)=O)c2CC[C@@H]1C [I-382]",
    "MEASUREMENT LABEL": "pIC50",
    "OBSERVED RESULT": "6.30 to 7.30"
  },
  {
    "COMPOUND": "CC(=O)N1c2ccc(-c3ccc(NS(C)(=O)=O)cc3)c(OCC(=O)N(C)C)c2CC[C@@H]1C [I-495]",
    "MEASUREMENT LABEL": "pIC50",
    "OBSERVED RESULT": "≤ 6.30"
  },
  {
    "COMPOUND": "CC(=O)N1c2ccc(-c3cnn(C4CC4)c3)c(Oc3ccc(C(=O)N(C)C)cc3)c2CC[C@@H]1C [I-595]",
    "MEASUREMENT LABEL": "pIC50",
    "OBSERVED RESULT": "6.30 to 7.30"
  },
  {
    "COMPOUND": "COC(=O)N1c2ccc(-c3cnn(C4CCNCC4)c3)c(Oc3ccc(C#N)cc3F)c2CC[C@@H]1C [I-135]",
    "MEASUREMENT LABEL": "pIC50",
    "OBSERVED RESULT": "> 7.30"
  }
]
